Entries and their cell viability
Test system: SEM cells
Assay: cell viability relative to DMSO control; higher = less cytotoxic
Settings: HPLM + 10% dialyzed FBS; 48 h; 0.00702 µM
Report as a plain number; the unit % is understood.

Please review the entries below; each comes with its answer.
# Molecule, Measurement type, Numeric readout
rows = [
    ("CCC[C@@H](C=O)NC(=O)[C@H](CC(C)C)NC(=O)[C@H](CC(C)C)NC(=O)OCc1ccccc1", "cell viability", 106),
    ("C[N+](C)(C)CC(=O)O.[Cl-]", "cell viability", 80.5),
    ("NC/1=N/C(=O)N(C[C@@H](CO)OC[P](O)(O)=O)/C=C1", "cell viability", 120),
    ("Cn1c(=O)c2[nH]cnc2n(C)c1=O", "cell viability", 107),
    ("CCCNCC(O)COc1ccccc1C(=O)CCc1ccccc1 (stereo unspecified)", "cell viability", 117),
]

Pending molecule:
*Q* Which cell viability value belongs to COC(=O)Nc1ccc(-c2nc(N3CCOCC3)c3cnn(C4CCN(Cc5cccnc5)CC4)c3n2)cc1 ?
*A* 99

====

System: P12-Ichikawa
Test: cell viability relative to DMSO control; higher = less cytotoxic
Settings: HPLM + 10% dialyzed FBS; 48 h; 0.00234 µM
Measurement type: cell viability (%)
Report as a plain number; the unit % is understood.

# Compound, Measurement type, Numeric readout
rows = [
    ("FC(F)(F)C1=CC=C2C(SCCCCCO\\C3=C\\O\\C(CN4CCOCC4)=C/C3=O)=CC=NC2=C1", "cell viability", 122),
    ("CCC[C@@H](C=O)NC(=O)[C@H](CC(C)C)NC(=O)[C@H](CC(C)C)NC(=O)OCc1ccccc1", "cell viability", 108),
    ("CN(c1nccc(=O)[nH]1)C1CCN(c2nc3ccccc3n2Cc2ccc(F)cc2)CC1", "cell viability", 104),
]

*Q* Which cell viability value belongs to NCCCCCC(=O)O ?
*A* 109

*Q* Subsequent entry: Oc1cc2c(cc1O)C1c3ccc(O)c(O)c3OCC1(O)C2 (stereo not given)
*A* 106

====

Entries and their cell viability
Tested on: SEM cells
Test: cell viability relative to DMSO control; higher = less cytotoxic
Settings: RPMI 5 mM glucose + 10% dialyzed FBS; 48 h; 0.0632 µM
Dear colleague, please send the value followed by its unit.

Please review the entries below; each comes with its answer.
# Compound, Assay system, cell viability
rows = [
    ("Cc1ccc(NC(=O)Nc2cc(C(F)(F)F)ccc2F)cc1Nc1ccc2c(c1)NC(=O)/C2=C\\c1ccc[nH]1", "SEM cells", "138%"),
    ("CCN1\\C=C(C(O)=O)/C(=O)C2=C1C=C(N3CCN(C)CC3)C(=C2)F", "SEM cells", "95.6%"),
    ("COc1nccc(-c2c(-c3ccc(F)cc3)ncn2C2CCC(O)CC2)n1 (stereo unspecified)", "SEM cells", "123%"),
    ("CCOC(CN1C(=O)[C@](CC(=O)Nc2ccc(C)cc2)(NC(=O)Nc2ccc(C)cc2)c2ccccc21)OCC", "SEM cells", "122%"),
    ("FC1=CC=C(CN2\\C=C/C=C(/C(=O)N[C@@H](COC3=CC4=C(NC(=O)N4)C=C3)C5=CC=CC=C5)C2=O)C=C1F", "SEM cells", "84.5%"),
]

*Q* Which cell viability value belongs to O=C(O)c1ccc(-c2c[nH]c3ncc(-c4ccccc4)cc23)cc1C1CCCC1 ?
*A* 114%

*Q* Subsequent entry: Cc1cccc(N(C)C(=S)Oc2ccc3ccccc3c2)c1
*A* 108%

*Q* Subsequent entry: CN(C)/[N+]([O-])=N/Oc1cc(ON[N+](=O)N2CCN(C(=O)c3cc(Cc4n[nH]c(=O)c5ccccc45)ccc3F)CC2)c([N+](=O)[O-])cc1[N+](=O)[O-]
*A* 109%

*Q* Subsequent entry: Cn1cnc(-c2cc3nccc(Oc4ccc(NC(=S)NC(=O)Cc5ccccc5)cc4F)c3s2)c1
*A* 35.3%
